target: human ENT1 (Homo sapiens, UniProt Q99808); construct: JAR cells expressing ENT1 were purchased from ATCC; host or cells: JAR cells; test: Uridine transport inhibition assay, ENT1-mediated uptake in MDCKII cells; format: cell-based; conditions: MDCKIIENT1-LV cells, probe uridine 1 μM, pre-incubation 30 min, incubation 1 min
Sequence (Q99808 whole entry): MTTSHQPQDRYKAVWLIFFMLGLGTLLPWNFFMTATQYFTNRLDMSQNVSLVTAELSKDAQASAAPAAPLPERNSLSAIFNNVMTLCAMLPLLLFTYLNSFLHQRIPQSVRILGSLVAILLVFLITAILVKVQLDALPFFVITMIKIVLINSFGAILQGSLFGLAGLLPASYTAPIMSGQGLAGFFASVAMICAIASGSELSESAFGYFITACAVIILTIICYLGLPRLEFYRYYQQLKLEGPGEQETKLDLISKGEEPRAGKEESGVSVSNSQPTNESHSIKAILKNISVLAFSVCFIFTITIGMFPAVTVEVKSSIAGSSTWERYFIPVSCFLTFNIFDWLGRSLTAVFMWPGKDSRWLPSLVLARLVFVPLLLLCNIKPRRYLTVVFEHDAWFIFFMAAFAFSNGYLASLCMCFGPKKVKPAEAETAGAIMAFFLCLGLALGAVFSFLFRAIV
EXPERIMENTAL_ENDPOINT: IC50

What IC50 appears in the records for this compound with human ENT1 (Homo sapiens, UniProt Q99808)? C[C@H]1O[C@@H](n2cnc3c(N4CCc5ccc([N+](=O)[O-])cc5C4)ncnc32)[C@H](O)[C@@H]1O 0.1 to 2 nM

What IC50 appears in the records for this compound with human ENT1 (Homo sapiens, UniProt Q99808)? C[C@H]1O[C@@H](n2c(NC3CCCC3)nc3c(OCc4ccc([N+](=O)[O-])cc4)ncnc32)[C@H](O)[C@@H]1O 0.1 to 2 nM

What IC50 appears in the records for this compound with human ENT1 (Homo sapiens, UniProt Q99808)? C[C@H]1O[C@@H](n2cnc3c(SCc4ccc([N+](=O)[O-])cc4)ncnc32)[C@H](O)[C@@H]1O < 0.1 nM

What IC50 appears in the records for this compound with human ENT1 (Homo sapiens, UniProt Q99808)? OCCOC[C@H]1O[C@@H](n2cnc3c(OCc4ccc(OC(F)(F)F)cc4)ncnc32)[C@H](O)[C@@H]1O 0.1 to 2 nM
